Tested on: HEL92.1.7
assay-overview: CellTiterGlo viability assay, HEL92.1.7
Type: cell-based
experimental-setup: Homo sapiens, HEL 92.1.7; CellTiterGlo, 72 hrs; read-out: IC50 HEL92.1.7

{"columns": ["compound", "IC50"],
 "data": [
  ["Nc1ncnc2c1nc(Cl)n2[C@@H]1O[C@H](CO)[C@@H](O)[C@H]1O [8-chloroadenosine, 8-Chloroadenosine, reference compound]", "0.1 to 5 µM"],
  ["Nc1ncnc2c1nc(Cl)n2[C@@H]1O[C@H](COP(=O)(NCC(=O)OCc2ccccc2)NCC(=O)OCc2ccccc2)C(O)C1O (some centres unmarked) [Compound AC]", "0.1 to 5 µM"]
]}

====

Catalogue of pIC50 values
Test system: Z138
assay-overview: CellTiterGlo viability assay, Z138
Type: cell-based
experimental-setup: Homo sapiens, Z-138; CellTiterGlo, 72 hrs; read-out: IC50 Z138
pIC50: −log10 of the molar value.

{"columns": ["compound", "target-or-system", "pIC50"],
 "data": [
  ["Nc1ncnc2c1nc(Cl)n2[C@@H]1O[C@H](COP(=O)(NCC(=O)OCc2ccccc2)NCC(=O)OCc2ccccc2)C(O)C1O (some centres unmarked)", "Z138", "5.30 to 7.00"],
  ["Nc1ncnc2c1nc(Cl)n2[C@@H]1O[C@H](CO)[C@@H](O)[C@H]1O [8-chloroadenosine, 8-Chloroadenosine, reference compound]", "Z138", "5.30 to 7.00"]
]}

====

Catalogue of pIC50 values
Test system: RPMI-8226
assay-overview: CellTiterGlo viability assay, RPMI-8226
Type: cell-based, Human
experimental-setup: Homo sapiens, RPMI-8226, 72 h, read-out: IC50 RPMI-8226
pIC50: −log10 of the molar value.
observation-type: pIC50

{"columns": ["compound", "target-or-system", "result"],
 "data": [
  ["C[C@H](NP(=O)(OC[C@H]1O[C@@H](n2c(Cl)nc3c(N)ncnc32)[C@H](O)[C@@H]1O)Oc1ccccc1)C(=O)OCc1ccccc1 (mixture of isomers)", "RPMI-8226", "4.82 to 5.30"],
  ["CC(C)C[C@H](NP(=O)(OC[C@H]1O[C@@H](n2c(Cl)nc3c(N)ncnc32)C(O)C1O)Oc1cccc2ccccc12)C(=O)OCc1ccccc1 (stereo partly drawn)", "RPMI-8226", "5.30 to 7.00"],
  ["Nc1ncnc2c1nc(Cl)n2[C@@H]1O[C@H](COP(=O)(NCC(=O)OCc2ccccc2)Oc2cccc3ccccc23)C(O)C1O (stereo partly drawn)", "RPMI-8226", "5.30 to 7.00"],
  ["Nc1ncnc2c1nc(Cl)n2[C@@H]1O[C@H](COP(=O)(NCC(=O)OCc2ccccc2)Oc2ccccc2)[C@@H](O)[C@H]1O (mixture of isomers)", "RPMI-8226", "5.30 to 7.00"],
  ["CC(C)C[C@H](NP(=O)(OC[C@H]1O[C@@H](n2c(Cl)nc3c(N)ncnc32)C(O)C1O)Oc1ccccc1)C(=O)OCc1ccccc1 (stereo partly drawn)", "RPMI-8226", "5.30 to 7.00"],
  ["CCCCCOC(=O)CNP(=O)(OC[C@H]1O[C@@H](n2c(Cl)nc3c(N)ncnc32)C(O)C1O)Oc1cccc2ccccc12 (stereo partly drawn)", "RPMI-8226", "4.82 to 5.30"]
]}

====

Catalogue of Change relative to control (%) values
Test system: KG1a leukaemic stem cell compartment (Lin−/CD34+/CD38−/CD123+)
assay-overview: Leukaemic stem cell compartment in KG1a; note: test concentration or dose not given here
Assay type: cell-based
experimental-setup: % LSC compartment versus the series' control

{"columns": ["compound", "Change relative to control (%)"],
 "data": [
  ["C[C@H](NP(=O)(OC[C@H]1O[C@@H](n2cnc3c(N)nc(Cl)nc32)CC1O)Oc1cccc2ccccc12)C(=O)OCc1ccccc1 (stereo partly drawn) [Comparative compound 2]", "−0.5"],
  ["C[C@H](NP(=O)(OC[C@H]1O[C@@H](n2cnc3c(N)nc(Cl)nc32)[C@H](F)C1O)Oc1cccc2ccccc12)C(=O)OCc1ccccc1 (stereo partly drawn) [Comparative compound 1]", "−0.2"],
  ["Nc1nc(Cl)nc2c1ncn2[C@@H]1O[C@H](CO)[C@@H](O)[C@@H]1F [Clofarabine]", "−0.2"],
  ["C[C@H](NP(=O)(OC[C@H]1O[C@@H](n2c(Cl)nc3c(N)ncnc32)C(O)C1O)Oc1cccc2ccccc12)C(=O)OCc1ccccc1 (stereo partly drawn) [Compound D]", "−0.8"]
]}

====

Tested on: human cervix carcinoma HeLa cells
assay-overview: Cell proliferation (Coulter count) assay, HeLa
Type: cell-based
experimental-setup: 120 h, cell count on day 5, read-out: absolute IC50, HeLa

{"columns": ["compound", "IC50"],
 "data": [
  ["CC(C)(C)COC(=O)C(C)(C)NP(=O)(OC[C@H]1O[C@@H](n2c(Cl)nc3c(N)ncnc32)C(O)C1O)Oc1ccccc1 (stereo partly shown) [Y]", "15 to 100 µM"],
  ["CC(C)OC(=O)[C@H](C)NP(=O)(OC[C@H]1O[C@@H](n2c(Cl)nc3c(N)ncnc32)C(O)C1O)Oc1ccccc1 (stereo partly shown) [W]", "15 to 100 µM"],
  ["CC(C)[C@H](NP(=O)(OC[C@H]1O[C@@H](n2c(Cl)nc3c(N)ncnc32)C(O)C1O)Oc1ccccc1)C(=O)OCc1ccccc1 (stereo partly shown) [AA]", "5 to 15 µM"],
  ["CCCCCOC(=O)[C@H](C)NP(=O)(OC[C@H]1O[C@@H](n2c(Cl)nc3c(N)ncnc32)C(O)C1O)Oc1cccc2ccccc12 (stereo partly shown) [Compound E]", "0.1 to 5 µM"],
  ["Nc1ncnc2c1nc(Cl)n2[C@@H]1O[C@H](COP(=O)(N[C@@H](Cc2ccccc2)C(=O)OC2CCCCC2)Oc2cccc3ccccc23)C(O)C1O (stereo partly shown) [R]", "0.1 to 5 µM"],
  ["Nc1ncnc2c1nc(Cl)n2[C@@H]1O[C@H](CO)[C@@H](O)[C@H]1O [8-chloroadenosine, 8-Chloroadenosine, reference compound]", "0.1 to 5 µM"],
  ["CCCCCOC(=O)[C@H](CC(C)C)NP(=O)(OC[C@H]1O[C@@H](n2c(Cl)nc3c(N)ncnc32)C(O)C1O)Oc1cccc2ccccc12 (stereo partly shown) [I]", "0.1 to 5 µM"],
  ["CCOC(=O)[C@H](C)NP(=O)(OC[C@H]1O[C@@H](n2c(Cl)nc3c(N)ncnc32)C(O)C1O)Oc1cccc2ccccc12 (stereo partly shown) [F]", "0.1 to 5 µM"],
  ["CCCCCOC(=O)CNP(=O)(OC[C@H]1O[C@@H](n2c(Cl)nc3c(N)ncnc32)C(O)C1O)Oc1cccc2ccccc12 (stereo partly shown) [O]", "0.1 to 5 µM"],
  ["C[C@H](NP(=O)(OC[C@H]1O[C@@H](n2c(Cl)nc3c(N)ncnc32)[C@H](O)[C@@H]1O)Oc1ccccc1)C(=O)OCc1ccccc1 (mixture of isomers) [C]", "5 to 15 µM"],
  ["Nc1ncnc2c1nc(Cl)n2[C@@H]1O[C@H](COP(=O)(NCC(=O)OCc2ccccc2)Oc2ccccc2)[C@@H](O)[C@H]1O (mixture of isomers) [Compound B]", "0.1 to 5 µM"],
  ["CCOC(=O)[C@H](Cc1ccccc1)NP(=O)(OC[C@H]1O[C@@H](n2c(Cl)nc3c(N)ncnc32)C(O)C1O)Oc1cccc2ccccc12 (stereo partly shown) [S]", "0.1 to 5 µM"],
  ["Nc1ncnc2c1nc(Cl)n2[C@@H]1O[C@H](COP(=O)(N[C@@H](Cc2ccccc2)C(=O)OCc2ccccc2)Oc2ccccc2)C(O)C1O (stereo partly shown) [U]", "0.1 to 5 µM"],
  ["CCOC(=O)[C@H](CC(C)C)NP(=O)(OC[C@H]1O[C@@H](n2c(Cl)nc3c(N)ncnc32)C(O)C1O)Oc1cccc2ccccc12 (stereo partly shown) [K]", "0.1 to 5 µM"],
  ["CCCCCOC(=O)[C@H](Cc1ccccc1)NP(=O)(OC[C@H]1O[C@@H](n2c(Cl)nc3c(N)ncnc32)C(O)C1O)Oc1cccc2ccccc12 (stereo partly shown) [Q]", "0.1 to 5 µM"],
  ["CC(C)C[C@H](NP(=O)(OC[C@H]1O[C@@H](n2c(Cl)nc3c(N)ncnc32)C(O)C1O)Oc1cccc2ccccc12)C(=O)OC1CCCCC1 (stereo partly shown) [J]", "5 to 15 µM"],
  ["Nc1ncnc2c1nc(Cl)n2[C@@H]1O[C@H](COP(=O)(NCC(=O)OC2CCCCC2)Oc2ccccc2)[C@@H](O)[C@H]1O (mixture of isomers) [Compound A]", "15 to 100 µM"],
  ["Nc1ncnc2c1nc(Cl)n2[C@@H]1O[C@H](COP(=O)(NCC(=O)OCc2ccccc2)NCC(=O)OCc2ccccc2)C(O)C1O (stereo partly shown) [Compound AC]", "0.1 to 5 µM"],
  ["CC(C)C[C@H](NP(=O)(OC[C@H]1O[C@@H](n2c(Cl)nc3c(N)ncnc32)C(O)C1O)Oc1cccc2ccccc12)C(=O)OCc1ccccc1 (stereo partly shown) [H]", "0.1 to 5 µM"],
  ["CCOC(=O)CNP(=O)(OC[C@H]1O[C@@H](n2c(Cl)nc3c(N)ncnc32)C(O)C1O)Oc1cccc2ccccc12 (stereo partly shown) [N]", "0.1 to 5 µM"],
  ["COC(=O)[C@H](CCSC)NP(=O)(OC[C@H]1O[C@@H](n2c(Cl)nc3c(N)ncnc32)C(O)C1O)Oc1ccccc1 (stereo partly shown) [Z]", "15 to 100 µM"],
  ["C[C@@H](NP(=O)(OC[C@H]1O[C@@H](n2c(Cl)nc3c(N)ncnc32)C(O)C1O)Oc1ccccc1)C(=O)OCc1ccccc1 (stereo partly shown) [T]", "5 to 15 µM"],
  ["Nc1ncnc2c1nc(Cl)n2[C@@H]1O[C@H](COP(=O)(NCC(=O)OCc2ccccc2)Oc2cccc3ccccc23)C(O)C1O (stereo partly shown) [Compound L]", "0.1 to 5 µM"],
  ["C[C@H](NP(=O)(OC[C@H]1O[C@@H](n2c(Cl)nc3c(N)ncnc32)C(O)C1O)Oc1cccc2ccccc12)C(=O)OCc1ccccc1 (stereo partly shown) [Compound D]", "0.1 to 5 µM"],
  ["C[C@H](NP(=O)(N[C@@H](C)C(=O)OCc1ccccc1)OC[C@H]1O[C@@H](n2c(Cl)nc3c(N)ncnc32)C(O)C1O)C(=O)OCc1ccccc1 (stereo partly shown) [AB]", "0.1 to 5 µM"]
]}
